- System: MS2 coat protein
- assay.remarks: apparent Kd, MS2 coat protein; higher = weaker binding; RNA-MaP array; FMN 200 µM where present
- condition.context: designed as: OFF switch for flavin mononucleotide; no ligand
Threshold check on apparent Kd: at or above 0.02 µM gives y, strictly below gives n.

Some solved entries appear below for comparison.
[in] API: above_or_equal(metric=apparent Kd, cutoff=0.02 µM) for item CUUUGGAUGUCAGGAUAUUGAAUCAUGGAUGGUAUCUUACAGUCUUACAUGAGGAUCACCCAUGUCGAGAAGGGAUAUCAGCUC
[out] n

[in] Given AAUUCACAUGAGGAUCACCCAUGUCAGGAUAUGGUGACGCGGGUUUCGGUGCGUGUUGCCAGAAGGGACAGCUA , state whether its apparent Kd is at least 0.02 µM.
[out] y

[in] I'd appreciate it if you could say whether UCCUUGUCCUGAGGAUAUCCGUGGUGACCGAAAGGAGAAGGCAGGACAUGAGGAUCACCCAUGUACCCAGAAAACGUGCAGAGA has apparent Kd at least equal to 0.02 µM.
[out] y

[in] hey, is apparent Kd for this one >= 0.02 µM? CUUUUGUGAGGAUAUCAGUAGUAAAAAAAUUAAAUUACUACUGAGAAGGCACAUGAGGAUCACCCAUGUUCCUC
[out] y

[in] Form field: apparent Kd at least 0.02 µM? Entry: CCGGAACAUGAGGAUCACCCAUGUGAGGAUAUCGUACGUUCGUCGAUAGACGAUCGUACGAGAAGGCACGCCGG
[out] n

New cases:
[in] For this sequence, is measured apparent Kd 0.02 µM or higher? AAAACGUGAGGAUAUGCACCAACCAAGGUUUUUCGGGUACGACAUGAGGAUCACCCAUGUAGAAGGCACGCAAA
[out] y

[in] Does UGCUAGUGAGGAUAUGCUGGAAUAAAGAUUUGACGUGGCGAACAUGAGGAUCACCCAUGUAGAAGGCACAAUAC have a reported apparent Kd of at least 0.02 µM?
[out] n

[in] Decide: apparent Kd of GGGAGUGAAGGAUAUACAUGAGGAUCACCCAUGUGGGAGGAGAGAGGUGAGGAGGCUGGUAGAAGGUCAGGAUG >= 0.02 µM?
[out] y

[in] Reported apparent Kd at or above 0.02 µM? AAAUAAACUACCAAAAUAUCCUCACAUGAGGAUCACCCAUGUCAGGAUAUUUGUCCUAAAAGGACAGAGAAGGGACGUGGUAGA
[out] n

[in] Is reported apparent Kd greater than or equal to 0.02 µM here: AAAUUUUGUCAAGGAUAUGUAUAAAAGAGAAGAAAACAUGAGGAUCACCCAUGUAUAUGGUGGGAACAGAAGGUGAUUAAGUAA
[out] y

[in] Does the reported apparent Kd for GCAGGUUAAGUCAGGAUAUACCUAUGGAUACAUAGGUAGAAGGGACAUGAGGAUCACCCAUGUGCCUCGCCUGC fall at or above the 0.02 µM mark?
[out] n

[in] Entry UAAGUCGGAAGAUAAUAAUGAAUACAUGAGGAUCACCCAUGUAAGGAUAUGCAGUGGAAUACACUGCAGAAGGUACAUACCGAC : is its apparent Kd no less than 0.02 µM?
[out] n

[in] Dear colleague, could you confirm whether GGUGCUCAAAGAGUACCAAUACGAACAUGAGGAUCACCCAUGUAGGAUAUGCUACUCAAAGAGUAGCAGAAGGACAUGUGCCUA has apparent Kd at or above 0.02 µM?
[out] n

###

- System: MS2 coat protein
- assay.remarks: apparent Kd, MS2 coat protein; higher = weaker binding; RNA-MaP array; FMN 200 µM where present
- condition.context: ligand present: flavin mononucleotide; designed as: ON switch for flavin mononucleotide
apparent Kd values by entry
Answer in nM, number only, no unit symbol.

// worked examples, apparent Kd included
[in] Identify the measured apparent Kd of GGAAAACAUGAGGAUCACCCAUGUGAAAACGUGGGAGGAUAUGGAUGGAAACCAUACUGUCCAGAAGGCCCAUGUC for MS2 coat protein.
[out] 18.9

[in] Test system MS2 coat protein; read-out apparent Kd; what value for CGUAACUACAUAGGAUAUUGAUACAUGAGGAUCACCCAUGUUAUAGGGAUUAGUUUAAUAUUAAGCAAGAAGGAUGAAGUUACG ?
[out] 12.4

[in] Lab note: need apparent Kd for CUCAAACAUGAGGAUCACCCAUGUGUUGUCAUGGGAGGAUAUCCCAGUUCGUUGUAGUCGGGAGAAGGCCUAUGUC on MS2 coat protein, anyone have it?
[out] 28.6

[in] What measured apparent Kd is associated with GGACGUCACAUCUACAUGAGGAUCACCCAUGUCGAAAGACAUGAGGAUAUGCAUCCUAAUUGGAUGCAGAAGGCAUGGACGUCC on MS2 coat protein?
[out] 69.7

[in] Quick check: apparent Kd on MS2 coat protein, item UUUAGUUGCGGGCAGGAUAUGUAUUAAAAUACAUGAGGAUCACCCAUGUGUGGGUAUAACACCCAACAGAAGGGCCAAUCGCGAC ?
[out] 18.3

[in] Enter reported apparent Kd observed with MS2 coat protein for GUAGCUUCAUUUAUACAUGAGGAUCACCCAUGUUACAUGGGUAAGGAUAUUGAUGUUAUGAUUAUCAAGAAGGUACUAUGCUAC
[out] 39.6

Others:
[in] Missing value: apparent Kd, MS2 coat protein, entry UCGACCAGCGCCAGCCGAACAUGAGGAUCACCCAUGUACUCCAGAAGGCCGCCCAAGAACGGAGUGGAGGAUAUGGAGGUUCUC . Fill in?
[out] 35.5

[in] Notebook: pull reported apparent Kd for MS2 coat protein, entry AAUUAUAUGUAGAAGGUACAGACUUAUGAGUAGUAAGGAUAUACAAAAUUAUUAAUUCUCAAGUUACAUGAGGAUCACCCAUGU
[out] 8.33

[in] State its apparent Kd on MS2 coat protein: AGAAAACAUGAGGAUCACCCAUGUAGAAAUAUGGGAGGAUAUACAAAGACGAAAGUCAGAGUAGAAGGCCUAAAAA
[out] 17.6

[in] Missing value: apparent Kd, MS2 coat protein, entry UAUUUUAACUAAGGAUAUCUGUAUUAUGUAGAAACAUGAGGAUCACCCAUGUUCUUGAUAUUAUAGGAGAAGGUAGAUGAAUAA . Fill in?
[out] 5.72

[in] Query for MS2 coat protein: what apparent Kd does the record show for GUGGUGUAGAUACAGGAUAUGUUGCUCGUAACAUGAGGAUCACCCAUGUAUCUAUGAGAAUAAAUGCAGAAGGGUGCACACCACU ?
[out] 30.1

[in] // lookup apparent Kd | system=MS2 coat protein | key= GCGCCGCAGCGGUACACGAGACAUGAGGAUCACCCAUGUGACAGAAGGGACUUGUUAAAGGUAGGUCAGGAUAUGUCUUAAAAG
[out] 56.5

[in] Notebook: pull reported apparent Kd for MS2 coat protein, entry CGUAGGAUCCAGAAGGCAUGAAACAUGAGGAUCACCCAUGUAAAAGACAUGAGGAUAUGGAUCCUACGAAAAGUGCGAAAGCAC
[out] 3.4

[in] // lookup apparent Kd | system=MS2 coat protein | key= UUAUUUGUACAAGGAUAUCUAUUAUAUUCACGUCCUACAUGAGGAUCACCCAUGUUAUAUAUUUUAGAGAAGGUGUAUUGUCUG
[out] 35.3

[in] What reported apparent Kd corresponds to GCCAUCGCAUGAGGAUAUGGCACCGUUUCGGUGCCAGAAGGCAUGUCGAAUGACAUGAGGAUCACCCAUGUAGUUAAGAUGGCA on MS2 coat protein?
[out] 25.2

[in] Form field: apparent Kd recorded for ACAUACAUUCGAGGAUAUCGGUGAUUAAUUUUACGAGAAGGCGAUAUAAGAUUUAAUAUUUUAGACAUGAGGAUCACCCAUGUA with MS2 coat protein (enter value)
[out] 22.7

[in] Param readout= apparent Kd; system= MS2 coat protein; entry= GUAGCAUACCGAGGAUAUCUAACGACAAAGUCGACAUGAGGAUCACCCAUGUGGCGAAAGCCUUGGGAGAAGGCGGAAUGCUAC ; returns value.
[out] 12.6

[in] # returns recorded apparent Kd (system: MS2 coat protein) for UUUAUAUUCAGAGGAUAUUAAUGUAGUAUAACAUAAGAAGGCUGUUUGUUUUGUAAAGUAAUUCUACAUGAGGAUCACCCAUGU
[out] 16.2

[in] Item: ACUUAAAUACCCAAAAGUCGGGCGGAGGAUAUGGAGCUUCCACCACAUGAGGAUCACCCAUGUCUUCAGAAGGCCGCCCUUGGA Test system: MS2 coat protein Read-out: apparent Kd Value: ?
[out] 11.2

[in] Find the measured apparent Kd: item CAGCGCUGUUGAGAGGAUAUGCGGUGAUGGACAUGAGGAUCACCCAUGUUAGCGACAGCAUUACGGCAGAAGGCUUCACAGCUGC , target or system MS2 coat protein.
[out] 14.6

[in] MS2 coat protein / apparent Kd / GCAGCGCUUGACAUGAGGAUCACCCAUGUUAGAUUGUUAAGUCAGGAUAUAGUCUAGAAACUAGACUAGAAGGGAUUUGCUGCU : value?
[out] 6.14

[in] What measured apparent Kd is associated with GGUAAACAUGAGGAUCACCCAUGUAAUAAUAUGGGAGGAUAUGGGAAUUAAUUAAUUAAACCAGAAGGCCUAAUUG on MS2 coat protein?
[out] 25.6

[in] What reported apparent Kd corresponds to GGCUUAAACACAGGAUAUAGUCUUAGGGCGAGACUAGAAGGGUGAAGUUCUCAUACAUGAGGAUCACCCAUGUCACGGAGGCUA on MS2 coat protein?
[out] 169

[in] Param readout= apparent Kd; system= MS2 coat protein; entry= AGUGUCAUCGAGAAGGCCUCAUGAACAUGAGGAUCACCCAUGUAAAAUGGGAGGAUAUCGAUGAUACAGCUACGUUUCGUAGCA ; returns value.
[out] 28.5

[in] Tell me reported apparent Kd for GCCAUCGCAUGAGGAUAUGCUCCCGUUUCGGGAGCAGAAGGCAUGUCAUAAGACAUGAGGAUCACCCAUGUAGCUAAGAUGGCA , tested with MS2 coat protein.
[out] 12.1

[in] Give the reported apparent Kd for UUGGACGUCGUAGGAUAUGUAGGAUAUUCCUACAUGAGGAUCACCCAUGUUGACAUGGAAGAGGGACAGAAGGACGAUGUCCAU (system: MS2 coat protein).
[out] 30.5

[in] Param readout= apparent Kd; system= MS2 coat protein; entry= UUGGUUGUCGUAGGAUAUGUAGGAUAUUCCUACAUGAGGAUCACCCAUGUUCGCAUGGAAGAAGGACAGAAGGACGAUGACCAG ; returns value.
[out] 9.67

[in] Form field - read-out: apparent Kd; system: MS2 coat protein; submitted item: UUAUUUAUACAAGGAUAUCUAUUAUAUUCACAUCCUACAUGAGGAUCACCCAUGUUAUAUAUUUUAGAGAAGGUGUAUUGUCUG
[out] 30.8
